The measured values listed here are drawn from patent US20250186614A1.

Test: Example 4: dose response of FKBP constructs 160-255, Ec50, Ec90 and fold change (raw and normalized to mCherry)
Assay type: cell-based
Conditions: FKBP constructs 160-255; not normalized; read-out: EC90
measure_name: EC90 (nM)
Give bare numbers, in nM.

As a guide, the following entries are already answered.
# molecule, unit_string, experimental_result
records = [
    ("FKBP-216 (protein, Description of sequence: Construct Name: FKBP-216; Mutation(s): Q72R Q84E A117W DRD M54A E61Y K101W K135Y) HCPIKSRKGDVLHAHYTGKLYDGTEFDSSLPRNQPFVFSLGTGEVIKGWDQGLLGMCEGEWRKLVIPSELGYGERGWPPKIPGGATLVFEVELLYIER", "nM", 14100),
    ("FKBP-160 (protein, Description of sequence: Construct Name: FKBP-160; Mutation(s): Q72R Q84E A117W V85R DRD M54A) HCPIKSRKGDVLHAHYTGKLEDGTEFDSSLPRNQPFVFSLGTGERIKGWDQGLLGMCEGEKRKLVIPSELGYGERGWPPKIPGGATLVFEVELLKIER", "nM", 42.2),
    ("FKBP-185 (protein, Description of sequence: Construct Name: FKBP-185; Mutation(s): Q72R Q84E A117W V85R DRD M54A D50L T57I I136L) HCPIKSRKGAVLHAHYIGKLEDGTEFDSSLPRNQPFVFSLGTGERIKGWDQGLLGMCEGEKRKLVIPSELGYGERGWPPKIPGGATLVFEVELLKLER", "nM", 22100),
    ("FKBP-164 (protein, Description of sequence: Construct Name: FKBP-164; Mutation(s): Q72R Q84E A117W DRD M54A P118V V85R) HCPIKSRKGDVLHAHYTGKLEDGTEFDSSLPRNQPFVFSLGTGERIKGWDQGLLGMCEGEKRKLVIPSELGYGERGWVPKIPGGATLVFEVELLKIER", "nM", 580),
]

State the recorded EC90 for every item in the following list.
1. FKBP-213 (protein, Description of sequence: Construct Name: FKBP-213; Mutation(s): Q72R Q84G A117W DRD P43R M54A) HCRIKSRKGDVLHAHYTGKLEDGTEFDSSLPRNQPFVFSLGTGGVIKGWDQGLLGMCEGEKRKLVIPSELGYGERGWPPKIPGGATLVFEVELLKIER
2. FKBP-207 (protein, Description of sequence: Construct Name: FKBP-207; Mutation(s): Q72R Q84E A117W V85R DRD M54A I136V) HCPIKSRKGDVLHAHYTGKLEDGTEFDSSLPRNQPFVFSLGTGERIKGWDQGLLGMCEGEKRKLVIPSELGYGERGWPPKIPGGATLVFEVELLKVER

1: 47.4; 2: 311
